assay-name: Pharmacokinetic analyses in mouse
Type: in vivo
experimental-conditions: NMRI, mouse, plasma, po, 30 mg/kg, NMRI mice, p.o., 30 mg/kg, PK study; read-out: AUC0-24h
Protocol: Compound concentrations in plasma aliquots were measured by quantitative HPLC-MS/MS using an internal standard. Calibration and quality control samples were prepared using blank plasma from untreated animals. Samples were precipitated with acetonitrile and injected into a HPLC system (Agilent 1200). […] Chromatograms were analyzed with Analyst (SCIEX) and pharmacokinetic parameters were calculated by non-compartmental analysis using BI-proprietary software.
experimental-endpoint: AUC(0-t) (µM·h)
Provide only the numeric value, understood in µM·h.

Exercise: Given Cc1ncsc1-c1ccc(C(CCC(C)CCN2CCC(c3ccc4c(c3)n(C3CCCC3)c3nc(=O)c5c(Br)cccc5n43)CC2)NC(=O)C2CC(O)CN2C(=O)C(NC(=O)C2(F)CC2)C(C)(C)C)cc1 (centres unmarked) , state its recorded AUC(0-t).
Solution: 50

Exercise: Similarly, `Cc1ncsc1-c1ccc([C@H](CCCCCN2CCC(c3ccc4c(c3)n(C3CCCC3)c3nc(=O)c5c(Br)cccc5n43)CC2)NC(=O)[C@@H]2C[C@@H](O)CN2C(=O)[C@@H](NC(=O)C2(F)CC2)C(C)(C)C)cc1` ?
Solution: 9.3

----------
assay-name: Pharmacokinetic analyses in mouse
Assay type: in vivo
experimental-conditions: mouse, plasma, po, 30 mg/kg, 30 mg/kg p.o.; individual animals; read-out: AUCinf
experimental-endpoint: AUC(0-inf)
Dear colleague, please send the value followed by its unit.

Exercise: Given Cc1ncsc1-c1ccc(C(CCC(C)CCN2CCC(c3ccc4c(c3)n(C3CCCC3)c3nc(=O)c5c(Br)cccc5n43)CC2)NC(=O)C2CC(O)CN2C(=O)C(NC(=O)C2(F)CC2)C(C)(C)C)cc1 (stereo not shown) , state its recorded AUC(0-inf).
Solution: 49.5 µM·h

----------
assay-name: Pharmacokinetic analyses in mouse
Type: in vivo
experimental-conditions: NMRI, mouse, plasma, po, 30 mg/kg, NMRI mice, p.o., 30 mg/kg, Xenograft study; read-out: AUC0-24h
experimental-endpoint: AUC(0-t) (µM·h)
Provide only the numeric value, understood in µM·h.

Exercise: Given `Cc1ncsc1-c1ccc([C@H](CCCCCN2CCC(c3ccc4c(c3)n(C3CCCC3)c3nc(=O)c5c(Br)cccc5n43)CC2)NC(=O)[C@@H]2C[C@@H](O)CN2C(=O)[C@@H](NC(=O)C2(F)CC2)C(C)(C)C)cc1` , state its recorded AUC(0-t).
Solution: 21

----------
study-system: VCB complex (Homo sapiens)
Construct: His6 (TEV site) (N, cleaved yes); made in house
Sequence (P40337 54-213): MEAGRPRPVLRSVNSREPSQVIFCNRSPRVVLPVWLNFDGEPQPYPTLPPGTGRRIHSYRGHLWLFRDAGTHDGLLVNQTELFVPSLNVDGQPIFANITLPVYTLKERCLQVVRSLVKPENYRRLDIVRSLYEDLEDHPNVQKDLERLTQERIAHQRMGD
Sequence (Q15369 17-112 partner limits assumed): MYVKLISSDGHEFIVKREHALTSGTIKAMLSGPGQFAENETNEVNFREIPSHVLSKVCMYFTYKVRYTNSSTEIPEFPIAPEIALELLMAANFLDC
Sequence (Q15370 1-104 partner limits assumed): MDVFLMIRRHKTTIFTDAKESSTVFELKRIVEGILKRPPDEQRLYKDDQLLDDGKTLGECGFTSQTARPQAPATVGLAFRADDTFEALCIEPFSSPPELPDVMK
assay-name: SPR binary binding to immobilised VCB complex
experimental-conditions: binary binding to VCB, mean ± SD
Listed here are compounds together with their documented pKd.
Remember, pKd is on a log scale: it is -log10 of the molar concentration.

The cases that follow already have their pKd on record.
compound	experimental-endpoint	value-measured
Cc1ncsc1-c1ccc([C@H](COC(C)CN2CCC(c3ccc4c(c3)n(C3CCCC3)c3nc(=O)c5c(Br)cccc5n43)CC2)NC(=O)[C@@H]2C[C@@H](O)CN2C(=O)[C@@H](NC(=O)C2(F)CC2)C(C)(C)C)cc1 (stereo partly shown) [compound 9]	pKd	7.47
Cc1ncsc1-c1ccc([C@H](COC(C)CN2CCC(c3ccc4c(c3)n(C3CCCC3)c3nc(=O)c5c(Br)cccc5n43)CC2)NC(=O)[C@@H]2C[C@@H](O)CN2C(=O)[C@@H](NC(=O)C2(N(C)C)CC2)C(C)(C)C)cc1 (stereo partly shown) [compound 10]	pKd	6.91
Cc1ncsc1-c1ccc([C@H](CCCCN2CCC(c3ccc4c(c3)n(C3CCCC3)c3nc(=O)c5c(Br)cccc5n43)CC2)NC(=O)[C@@H]2C[C@@H](O)CN2C(=O)[C@@H](NC(=O)C2(F)CC2)C(C)(C)C)cc1 [compound 25]	pKd	8.22

Exercise: Given Cc1ncsc1-c1ccc(CNC(=O)[C@@H]2C[C@@H](O)CN2C(=O)[C@@H](NC(=O)C2(F)CC2)C(C)(C)C)c(OCCCCN2CCC(c3ccc4c(c3)n(C3CCCC3)c3nc(=O)c5c(Br)cccc5n43)CC2)c1 [compound 23] , state its recorded pKd.
Solution: 7.80
